The following compounds are shown together with reported Plant response rating, Sedge, Umbrella values.
System: sedge, umbrella (small-flower umbrella sedge, Cyperus difformis)
protocol: Test B flooded paddy test, sedge, umbrella
Type: in vivo
conditions: Flood, 250 g ai/ha; scale of 0 to 100
Procedure: Plant species in the flooded paddy test selected from rice (Oryza sativa), sedge, umbrella (small-flower umbrella sedge, Cyperus difformis), ducksalad (Heteranthera limosa), and barnyardgrass (Echinochloa crus-galli) were grown to the 2-leaf stage for testing. […] Treated plants and controls were maintained in a greenhouse for 13 to 15 days, after which time all species were compared to controls and visually evaluated. […]
property-measured: Plant response rating, Sedge, Umbrella

Fc1cnc(Oc2cccnc2-c2cc(C(F)F)no2)nc1: 0
FC(F)c1cc(-c2ncccc2Oc2ncc(Cl)cn2)on1: 80
Clc1cnc(Oc2cccnc2-n2cc(Br)cn2)nc1: 50

====

Test system: ragweed (common ragweed, Ambrosia elatior)
protocol: Test A preemergence, ragweed
Format: in vivo
conditions: 125 g ai/ha, 0 to 100 scale
property-measured: Plant response rating, Ragweed

Clc1ccc(-c2cccnc2Oc2ncc(Cl)cn2)nc1: 0
FC(F)(F)c1cc(-c2ncccc2Oc2ncc(Cl)cn2)ccn1: 0
[O-][n+]1cccc(Oc2ncc(F)cn2)c1-n1cc(Cl)cn1: 0
FC(F)c1cc(-c2ncccc2Oc2ncc(Cl)cn2)on1: 10
[O-][n+]1cccc(Oc2ncc(Cl)cn2)c1-c1cc(C(F)F)on1: 0

====

The following compounds are shown together with reported Plant response rating, Barnyardgrass values.
Test system: barnyardgrass (Echinochloa crus-galli)
protocol: Test A postemergence, barnyardgrass
Assay type: in vivo
conditions: 125 g ai/ha, 0 to 100 scale
property-measured: Plant response rating, Barnyardgrass

FC(F)c1cc(-c2ncccc2Oc2ncc(Cl)cn2)on1: 20
[O-][n+]1cccc(Oc2ncc(F)cn2)c1-n1cc(Cl)cn1: 0
FC(F)(F)c1cc(-c2ncccc2Oc2ncc(Cl)cn2)ccn1: 40

====

Tested on: ducksalad (Heteranthera limosa)
protocol: Test B flooded paddy test, ducksalad
Type: in vivo
conditions: Flood, 250 g ai/ha; scale of 0 to 100
The following compounds are shown together with reported Plant response rating, Ducksalad values.
property-measured: Plant response rating, Ducksalad

Cc1cnc(-n2ccc(C(F)(F)F)n2)c(Oc2ncc(Cl)cn2)c1: 0
Clc1cnc(Oc2cccnc2-n2cc(Cl)cn2)nc1: 80
Cc1cnn(-c2ncccc2Oc2ncc(Cl)cn2)c1: 0

====

Tested on: barnyardgrass (Echinochloa crus-galli)
protocol: Test A postemergence, barnyardgrass
Type: in vivo
conditions: 125 g ai/ha, 0 to 100 scale
property-measured: Plant response rating, Barnyardgrass

Cc1ccc(Oc2ncc(Cl)cn2)c(-n2cc(Br)cn2)n1 [Compound 10]: 0
Clc1ccc(-c2cccnc2Oc2ncc(Cl)cn2)nc1 [Compound 12]: 30
[O-][n+]1cccc(Oc2ncc(Cl)cn2)c1-c1cc(C(F)F)on1 [Compound 8]: 10
FC(F)c1cc(-c2ncccc2Oc2ncc(Cl)cn2)no1 [Compound 6]: 30
Fc1cnc(Oc2cccnc2-c2cc(C(F)F)no2)nc1 [Compound 7]: 0
Cc1cnn(-c2ncccc2Oc2ncc(Cl)cn2)c1 [Compound 3]: 0
Cc1cnc(-n2ccc(C(F)(F)F)n2)c(Oc2ncc(Cl)cn2)c1 [Compound 13]: 0
Clc1cnc(Oc2cccnc2-n2cc(-c3ccccc3)cn2)nc1 [Compound 4]: 0
Clc1cnc(Oc2cccnc2-n2cc(Cl)cn2)nc1 [Compound 2]: 0
Clc1cnc(Oc2cccnc2-n2cc(Br)cn2)nc1 [Compound 1]: 0

====

The following molecules are shown together with reported Plant response rating, Kochia values.
Tested on: kochia (Kochia scoparia)
protocol: Test A preemergence, kochia
Type: in vivo
conditions: 31 g ai/ha, 0 to 100 scale
property-measured: Plant response rating, Kochia

[O-][n+]1cccc(Oc2ncc(Cl)cn2)c1-c1cc(C(F)F)on1: 0
FC(F)c1cc(-c2ncccc2Oc2ncc(Cl)cn2)on1: 10
[O-][n+]1cccc(Oc2ncc(F)cn2)c1-n1cc(Cl)cn1: 0
Clc1ccc(-c2cccnc2Oc2ncc(Cl)cn2)nc1: 0
FC(F)c1cc(-c2ncccc2Oc2ncc(Cl)cn2)no1: 60
Cc1cnc(-n2ccc(C(F)(F)F)n2)c(Oc2ncc(Cl)cn2)c1: 0
Fc1cnc(Oc2cccnc2-c2cc(C(F)F)no2)nc1: 20

====

Test system: pigweed (Amaranthus retroflexus)
protocol: Test A postemergence, pigweed
Assay type: in vivo
conditions: 500 g ai/ha, 0 to 100 scale
property-measured: Plant response rating, Pigweed

Clc1cnc(Oc2cccnc2-n2cc(Br)cn2)nc1: 100
Cc1ccc(Oc2ncc(Cl)cn2)c(-n2cc(Br)cn2)n1: 50
FC(F)(F)c1cc(-c2ncccc2Oc2ncc(Cl)cn2)ccn1: 100
Cc1cnn(-c2ncccc2Oc2ncc(Cl)cn2)c1: 40
Clc1cnc(Oc2cccnc2-n2cc(Cl)cn2)nc1: 100
Clc1cnc(Oc2cccnc2-n2cc(-c3ccccc3)cn2)nc1: 70

====

Test system: ducksalad (Heteranthera limosa)
protocol: Test B flooded paddy test, ducksalad
Assay type: in vivo
conditions: Flood, 250 g ai/ha; scale of 0 to 100
The following molecules are shown together with reported Plant response rating, Ducksalad values.
property-measured: Plant response rating, Ducksalad

Fc1cnc(Oc2cccnc2-c2cc(C(F)F)no2)nc1 [Compound 7]: 50
Clc1ccc(-c2cccnc2Oc2ncc(Cl)cn2)nc1 [Compound 12]: 30
[O-][n+]1cccc(Oc2ncc(Cl)cn2)c1-c1cc(C(F)F)on1 [Compound 8]: 40
Clc1cnc(Oc2cccnc2-n2cc(-c3ccccc3)cn2)nc1 [Compound 4]: 0
Cc1ccc(Oc2ncc(Cl)cn2)c(-n2cc(Br)cn2)n1 [Compound 10]: 0
Clc1cnc(Oc2cccnc2-n2cc(Br)cn2)nc1 [Compound 1]: 60
FC(F)(F)c1cc(-c2ncccc2Oc2ncc(Cl)cn2)ccn1 [Compound 14]: 40
[O-][n+]1cccc(Oc2ncc(F)cn2)c1-n1cc(Cl)cn1 [Compound 9]: 0
FC(F)c1cc(-c2ncccc2Oc2ncc(Cl)cn2)on1 [Compound 5]: 75
FC(F)c1cc(-c2ncccc2Oc2ncc(Cl)cn2)no1 [Compound 6]: 30

====

Test system: morningglory (Ipomoea spp.)
protocol: Test A postemergence, morningglory
Assay type: in vivo
conditions: 125 g ai/ha, 0 to 100 scale
The following molecules are shown together with reported Plant response rating, Morningglory values.
property-measured: Plant response rating, Morningglory

Clc1cnc(Oc2cccnc2-n2cc(Br)cn2)nc1: 10
Cc1ccc(Oc2ncc(Cl)cn2)c(-n2cc(Br)cn2)n1: 0
Cc1cnn(-c2ncccc2Oc2ncc(Cl)cn2)c1: 20
Clc1cnc(Oc2cccnc2-n2cc(-c3ccccc3)cn2)nc1: 0
Clc1cnc(Oc2cccnc2-n2cc(Cl)cn2)nc1: 40

====

System: velvetleaf (Abutilon theophrasti)
protocol: Test A postemergence, velvetleaf
Type: in vivo
conditions: 125 g ai/ha, 0 to 100 scale
property-measured: Plant response rating, Velvetleaf

Clc1cnc(Oc2cccnc2-n2cc(Cl)cn2)nc1 [Compound 2]: 20
Cc1ccc(Oc2ncc(Cl)cn2)c(-n2cc(Br)cn2)n1 [Compound 10]: 50
Cc1cnn(-c2ncccc2Oc2ncc(Cl)cn2)c1 [Compound 3]: 10
Clc1cnc(Oc2cccnc2-n2cc(-c3ccccc3)cn2)nc1 [Compound 4]: 0
Clc1cnc(Oc2cccnc2-n2cc(Br)cn2)nc1 [Compound 1]: 20

====

The following molecules are shown together with reported Plant response rating, Sedge, Umbrella values.
System: sedge, umbrella (small-flower umbrella sedge, Cyperus difformis)
protocol: Test B flooded paddy test, sedge, umbrella
Assay type: in vivo
conditions: Flood, 250 g ai/ha; scale of 0 to 100
property-measured: Plant response rating, Sedge, Umbrella

FC(F)c1cc(-c2ncccc2Oc2ncc(Cl)cn2)no1 [Compound 6]: 0
Cc1cnc(-n2ccc(C(F)(F)F)n2)c(Oc2ncc(Cl)cn2)c1 [Compound 13]: 0
FC(F)(F)c1cc(-c2ncccc2Oc2ncc(Cl)cn2)ccn1 [Compound 14]: 50
Cc1ccc(Oc2ncc(Cl)cn2)c(-n2cc(Br)cn2)n1 [Compound 10]: 0
[O-][n+]1cccc(Oc2ncc(Cl)cn2)c1-c1cc(C(F)F)on1 [Compound 8]: 0

====

The following compounds are shown together with reported Plant response rating, Barnyardgrass values.
System: barnyardgrass (Echinochloa crus-galli)
protocol: Test A preemergence, barnyardgrass
Type: in vivo
conditions: 31 g ai/ha, 0 to 100 scale
property-measured: Plant response rating, Barnyardgrass

Cc1cnc(-n2ccc(C(F)(F)F)n2)c(Oc2ncc(Cl)cn2)c1 [Compound 13]: 0
FC(F)c1cc(-c2ncccc2Oc2ncc(Cl)cn2)no1 [Compound 6]: 0
[O-][n+]1cccc(Oc2ncc(F)cn2)c1-n1cc(Cl)cn1 [Compound 9]: 0
[O-][n+]1cccc(Oc2ncc(Cl)cn2)c1-c1cc(C(F)F)on1 [Compound 8]: 0
Fc1cnc(Oc2cccnc2-c2cc(C(F)F)no2)nc1 [Compound 7]: 0
FC(F)c1cc(-c2ncccc2Oc2ncc(Cl)cn2)on1 [Compound 5]: 0
Clc1ccc(-c2cccnc2Oc2ncc(Cl)cn2)nc1 [Compound 12]: 0

Where do the numbers come from? From patent US11006631B2.
